Hello, the source for this data is PubChem BioAssay (NCI), in case you need it.

Below, each entry is listed with its recorded growth.
test system: NCI-H322M lung; test: NCI-60 one-dose screen, 48 h (100 = growth as untreated, 0 = no growth, -100 = all killed); details: 10 µM unless noted
About 83,000 compounds went through this panel and 20% of them were active in at least one assay; those are over-represented in the sample as a whole.
experimental.endpoint: growth (%)

> print(dat)
                              sample.smiles  experimental.endpoint  reported.value
1  N#Cc1nc2c(S(=O)(=O)c3ccccc3)c(N)n(Cc3cccnc3)c2nc1C#N                 growth            91.7
2   Nc1ccc([N+](=O)[O-])cc1N=C/C=C/c1ccccc1                 growth            87.8
3  CCCCn1sc(=O)n(Cc2ccc(CNC(=O)OCc3ccc4c(Cl)cc(Cl)c(O)c4n3)cc2)c1=O                 growth            61.5
4  O=C(CCCCCCN1CC(=O)N2[C@@H](c3ccc(Cl)cc3)c3[nH]c4ccccc4c3C[C@H]2C1=O)NO                 growth            70.3
5  C=C(c1ccc(C(=O)O)cn1)c1cc2c(cc1C)C(C)(C)CCC2(C)C                 growth             108
